FYI, the data here is from patent US20240067631A1.

Would you kindly list EC50 for each of these compounds?
target: endogenous NAMPT (Homo sapiens (Human), UniProt P43490); assay: Cellular NAD+ modulation assay in SH-SY5Y cells with doxorubicin; details: Neuroblastoma SH-SY5Y cells, 40 hours, cellular NAD levels, read-out: SY5Y (human) NAD Cell Dox EC50
Sequence (P43490 whole entry): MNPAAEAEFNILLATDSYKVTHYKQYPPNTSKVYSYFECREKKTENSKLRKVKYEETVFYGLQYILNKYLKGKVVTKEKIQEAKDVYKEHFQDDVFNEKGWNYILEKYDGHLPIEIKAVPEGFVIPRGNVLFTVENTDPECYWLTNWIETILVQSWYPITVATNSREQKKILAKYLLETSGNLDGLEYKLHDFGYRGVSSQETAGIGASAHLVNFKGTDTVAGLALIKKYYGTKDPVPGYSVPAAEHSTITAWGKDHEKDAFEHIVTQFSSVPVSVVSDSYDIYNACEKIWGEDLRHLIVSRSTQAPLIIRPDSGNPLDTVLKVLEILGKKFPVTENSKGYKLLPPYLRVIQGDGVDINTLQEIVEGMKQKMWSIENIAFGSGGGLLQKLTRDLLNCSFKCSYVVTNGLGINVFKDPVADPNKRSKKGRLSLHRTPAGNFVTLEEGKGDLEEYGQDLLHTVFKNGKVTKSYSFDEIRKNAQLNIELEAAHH

Problem: Any idea what EC50 was measured for Cc1nc(C(=O)N[C@@H](C)c2cccc(F)c2)nc(NCCc2cn[nH]c2)c1C [Compound 10] ?
Result: 470 nM

Problem: Item: Cc1nc(C(=O)N2CCNCC2c2cccc(F)c2)nc(NCCc2cn[nH]c2)c1C (centres unmarked) [Compound 24]
Result: 2260 nM

Problem: Item: Cc1nc(C(=O)NCC(C)(C)c2cccc(F)c2)nc(NCCc2cn[nH]c2)c1C [Compound 27]
Result: 740 nM

Problem: Item: Cc1nc(C(=O)NC(C)(C)c2ccccc2)nc(NCCc2cn[nH]c2)c1C [Compound 21]
Result: 280 nM

Problem: Item: Cc1nc(C(=O)N[C@H](C)c2cccc(F)n2)nc(NCCc2cn[nH]c2)c1C [Compound 4]
Result: 110 nM

Problem: Item: Cc1nc(C(=O)N2CCOCC2c2cccc(F)c2)nc(NCCc2cn[nH]c2)c1C (centres unmarked) [Compound 7]
Result: 190 nM

Problem: Item: Cc1nc(C(=O)N[C@H](C)c2ccccc2Cl)nc(NCCc2cn[nH]c2)c1C [Compound 26]
Result: 720 nM

Problem: Item: Cc1nc(C(=O)N(C)C(c2cccc(F)c2)c2nccn2C)nc(NCCc2cn[nH]c2)c1C (centres unmarked) [Compound 5]
Result: 1760 nM

Problem: Item: Cc1nc(C(=O)NC(c2cccc(F)c2)c2ncco2)nc(NCCc2cn[nH]c2)c1C (centres unmarked) [Compound 23]
Result: 3250 nM

Problem: Item: Cc1nc(C(=O)N2CCC[C@@H]2c2cccc(F)c2)nc(NCCc2cn[nH]c2)c1C [Compound 15]
Result: 190 nM

Problem: Item: Cc1nc(C(=O)N[C@H](C)c2ncccc2Cl)nc(NCCc2cn[nH]c2)c1C [Compound 30]
Result: 1600 nM

Problem: Item: Cc1nc(C(=O)NC(c2cccc(F)c2)c2nccn2C)nc(NCCc2cn[nH]c2)c1C (centres unmarked) [Compound 20]
Result: 8790 nM

Problem: Item: Cc1nc(C(=O)N[C@H](C)c2ccccc2)nc(NCCc2cn[nH]c2)c1C [Compound 17]
Result: 440 nM

Problem: Item: Cc1nc(C(=O)N2CC(O)(c3ccccc3)C2)nc(NCCc2cn[nH]c2)c1C [Compound 22]
Result: 8840 nM

Problem: Item: Cc1nc(C(=O)N2CCC[C@@H]2c2cccc(Cl)c2)nc(NCCc2cn[nH]c2)c1C [Compound 13]
Result: 230 nM

Problem: Item: Cc1nc(C(=O)N2CCOC[C@H]2c2ccccc2)nc(NCCc2cn[nH]c2)c1C [Compound 16]
Result: 330 nM

Problem: Item: Cc1nc(C(=O)N[C@H](C)c2cccs2)nc(NCCc2cn[nH]c2)c1C [Compound 14]
Result: 480 nM

----------
target: human NAMPT (Homo sapiens (Human)); assay: Human recombinant enzyme assay (NMN fluorescence biochemical assay); settings: concentration of compound that generates 40% higher activity over basal; 6 nM human NAMPT, 60 min
OBSERVATION_TYPE: AC1.4 Human
Note: state the figure and append the unit.

Problem: Any idea what AC1.4 Human was measured for "Cc1nc(C(=O)NCc2ccccn2)nc(NCCc2cn[nH]c2)c1C" ?
Result: 1.244 µM

Problem: Item: Cc1nc(C(=O)NC(C)c2ccon2)nc(NCCc2cn[nH]c2)c1C (centres unmarked)
Result: 1.17 µM

Problem: Item: Cc1nc(C(=O)N2CCN(C)CC2c2ccccc2)nc(NCCc2cn[nH]c2)c1C (centres unmarked)
Result: 0.275 µM

Problem: Item: COc1cccc(C(C)NC(=O)c2nc(C)c(C)c(NCCc3cn[nH]c3)n2)n1 (centres unmarked)
Result: 0.563 µM

Problem: Item: "Cc1nc(C(=O)NCC(F)(F)c2ccccc2)nc(NCCc2cn[nH]c2)c1C"
Result: 1.9995 µM

Problem: Item: "Cc1nc(C(=O)NCCc2cncc(F)c2)nc(NCCc2cn[nH]c2)c1C"
Result: 3.249 µM

Problem: Item: "Cc1nc(C(=O)N2CCC(C(F)(F)F)CC2)nc(NCCc2cn[nH]c2)c1C"
Result: 32.854 µM

Problem: Item: "Cc1nc(C(=O)NCC2(c3cccc(F)c3)COC2)nc(NCCc2cn[nH]c2)c1C"
Result: 0.715 µM

Problem: Item: Cc1nc(C(=O)NC(c2cccc(F)c2)c2nccn2C)nc(NCCc2cn[nH]c2)c1C (centres unmarked)
Result: 0.062 µM

Problem: Item: "Cc1nc(C(=O)N[C@H](C)c2cccc(F)c2)nc(NCCc2cn[nH]c2)c1C"
Result: 0.21 µM

Problem: Item: Cc1nc(C(=O)NCC(O)(c2ccccc2)C(F)(F)F)nc(NCCc2cn[nH]c2)c1C (centres unmarked)
Result: 2.574 µM

Problem: Item: "Cc1nc(C(=O)N2CC3(C2)C(=O)Nc2ccccc23)nc(NCCc2cn[nH]c2)c1C"
Result: 4.3845 µM

Problem: Item: "Cc1nc(C(=O)N[C@H](C)c2ncccc2Cl)nc(NCCc2cn[nH]c2)c1C"
Result: 0.1725 µM

Problem: Item: "Cc1cccnc1[C@@H](C)NC(=O)c1nc(C)c(C)c(NCCc2cn[nH]c2)n1"
Result: 0.2055 µM

Problem: Item: "Cc1nc(C(=O)NC(C)(C)Cc2cccc(F)c2)nc(NCCc2cn[nH]c2)c1C"
Result: 0.2615 µM

Problem: Item: Cc1nc(C(=O)N2CCNCC2c2cccc(F)c2)nc(NCCc2cn[nH]c2)c1C (centres unmarked)
Result: 0.0955 µM

Problem: Item: "Cc1nc(C(=O)N[C@@H](C)c2cccs2)nc(NCCc2cn[nH]c2)c1C"
Result: 0.0325 µM

----------
target: human NAMPT (Homo sapiens (Human), UniProt P43490); test: Human recombinant enzyme assay (NMN fluorescence biochemical assay); details: concentration of compound that generates 40% higher activity over basal; 6 nM human NAMPT, 60 min
Sequence (P43490 whole entry): as above
Would you kindly list AC1.4 Human for each of these compounds?
Kindly provide the numeric value in µM only, without the unit symbol.

Problem: Any idea what AC1.4 Human was measured for Cc1nc(C(=O)NC(c2cccnc2)C(F)(F)F)nc(NCCc2cn[nH]c2)c1C (centres unmarked) ?
Result: 3.778

Problem: Item: "Cc1nc(C(=O)N[C@H](C)c2cccs2)nc(NCCc2cn[nH]c2)c1C"
Result: 0.054

Problem: Item: "Cc1nc(C(=O)N2CC(O)(C3CC3)C2)nc(NCCc2cn[nH]c2)c1C"
Result: 6.337

Problem: Item: "Cc1nc(C(=O)N2CCC[C@@H]2c2cccc(F)c2)nc(NCCc2cn[nH]c2)c1F"
Result: 0.12

Problem: Item: Cc1nc(C(=O)N2CC(O)(c3ccccc3)C2)nc(N2CC[C@@H](c3cn[nH]c3)C2)c1C (single isomer, unassigned)
Result: 0.044

Problem: Item: "Cc1nc(C(=O)NC(C)(C)c2ccc(F)cc2)nc(NCCc2cn[nH]c2)c1C"
Result: 0.9695

Problem: Item: "Cc1nc(C(=O)N2CC[C@H](c3ccccc3)C2)nc(NCCc2cn[nH]c2)c1C"
Result: 0.3305

Problem: Item: Cc1nc(C(=O)N2CCC(F)(F)CC2c2ccccc2)nc(NCCc2cn[nH]c2)c1C (centres unmarked)
Result: 0.144

Problem: Item: Cc1nc(C(=O)NC(c2ccc(F)c(F)c2)c2nccn2C)nc(NCCc2cn[nH]c2)c1C (centres unmarked)
Result: 3.578

Problem: Item: "Cc1nc(C(=O)N[C@@H](C)c2ccccc2)nc(NCCc2cn[nH]c2)c1C"
Result: 0.4045

Problem: Item: "Cc1nc(C(=O)N[C@H](C)c2cccnc2)nc(NCCc2cn[nH]c2)c1C"
Result: 32.9385

Problem: Item: "Cc1cccc(F)c1NC(=O)c1nc(C)c(C)c(NCCc2cn[nH]c2)n1"
Result: 3.809

Problem: Item: "Cc1nc(C(=O)N2CC[C@@H](c3ccccc3)C2)nc(NCCc2cn[nH]c2)c1C"
Result: 0.409

Problem: Item: "CNC(=O)c1nc(C)c(C)c(N(CCc2ccccc2)CCc2cn[nH]c2)n1"
Result: 0.007

Problem: Item: Cc1nc(C(=O)NC(c2ccccc2F)c2nccn2C)nc(NCCc2cn[nH]c2)c1C (centres unmarked)
Result: 1.3275

Problem: Item: "CCC1(O)CN(C(=O)c2nc(C)c(C)c(NCCc3cn[nH]c3)n2)C1"
Result: 2.339

----------
target: human NAMPT (Homo sapiens (Human)); test: Human recombinant enzyme assay (NMN fluorescence biochemical assay); settings: concentration of compound that generates 40% higher activity over basal; 6 nM human NAMPT, 60 min
Label f if AC1.4 Human falls below 2 µM; label t in every other case.

Problem: Could you verify whether the entry "Cc1cc(NCCc2cn[nH]c2)nc(C(=O)N2CCC[C@@H]2c2cccc(F)c2)c1" shows AC1.4 Human of no less than 2 µM?
Result: t

Problem: Item: Cc1nc(C(=O)NC(c2ccccc2)c2nccn2C)nc(NCCc2cn[nH]c2)c1C (stereo not shown)
Result: f

Problem: Item: "Cc1nc(C(=O)N(C)[C@@H](C)c2ccccc2Cl)nc(NCCc2cn[nH]c2)c1C"
Result: f

Problem: Item: "Cc1nc(C(=O)N[C@H](C)c2ccc(F)cn2)nc(NCCc2cn[nH]c2)c1C"
Result: t

Problem: Item: Cc1nc(C(=O)N2CCCC2Cc2ccccc2)nc(NCCc2cn[nH]c2)c1C (stereo not shown)
Result: f

Problem: Item: "Cc1nc(C(=O)Nc2ccncc2F)nc(NCCc2cn[nH]c2)c1C"
Result: t

Problem: Item: "Cc1nc(C(=O)N2CC(O)(c3cccc(F)c3F)C2)nc(NCCc2cn[nH]c2)c1C"
Result: f

Problem: Item: "Cc1nc(C(=O)N[C@@H](C)c2ccccn2)nc(NCCc2cn[nH]c2)c1C"
Result: t

Problem: Item: "Cc1nc(C(=O)N2CCOC[C@@H]2Cc2ccccc2)nc(NCCc2cn[nH]c2)c1C"
Result: f
